- Target Of Assay: GluN2B glutamate receptors (Homo sapiens (Human), UniProt Q05586+Q13224)
- Sequence (Q13224 27-1484, other chains not shown): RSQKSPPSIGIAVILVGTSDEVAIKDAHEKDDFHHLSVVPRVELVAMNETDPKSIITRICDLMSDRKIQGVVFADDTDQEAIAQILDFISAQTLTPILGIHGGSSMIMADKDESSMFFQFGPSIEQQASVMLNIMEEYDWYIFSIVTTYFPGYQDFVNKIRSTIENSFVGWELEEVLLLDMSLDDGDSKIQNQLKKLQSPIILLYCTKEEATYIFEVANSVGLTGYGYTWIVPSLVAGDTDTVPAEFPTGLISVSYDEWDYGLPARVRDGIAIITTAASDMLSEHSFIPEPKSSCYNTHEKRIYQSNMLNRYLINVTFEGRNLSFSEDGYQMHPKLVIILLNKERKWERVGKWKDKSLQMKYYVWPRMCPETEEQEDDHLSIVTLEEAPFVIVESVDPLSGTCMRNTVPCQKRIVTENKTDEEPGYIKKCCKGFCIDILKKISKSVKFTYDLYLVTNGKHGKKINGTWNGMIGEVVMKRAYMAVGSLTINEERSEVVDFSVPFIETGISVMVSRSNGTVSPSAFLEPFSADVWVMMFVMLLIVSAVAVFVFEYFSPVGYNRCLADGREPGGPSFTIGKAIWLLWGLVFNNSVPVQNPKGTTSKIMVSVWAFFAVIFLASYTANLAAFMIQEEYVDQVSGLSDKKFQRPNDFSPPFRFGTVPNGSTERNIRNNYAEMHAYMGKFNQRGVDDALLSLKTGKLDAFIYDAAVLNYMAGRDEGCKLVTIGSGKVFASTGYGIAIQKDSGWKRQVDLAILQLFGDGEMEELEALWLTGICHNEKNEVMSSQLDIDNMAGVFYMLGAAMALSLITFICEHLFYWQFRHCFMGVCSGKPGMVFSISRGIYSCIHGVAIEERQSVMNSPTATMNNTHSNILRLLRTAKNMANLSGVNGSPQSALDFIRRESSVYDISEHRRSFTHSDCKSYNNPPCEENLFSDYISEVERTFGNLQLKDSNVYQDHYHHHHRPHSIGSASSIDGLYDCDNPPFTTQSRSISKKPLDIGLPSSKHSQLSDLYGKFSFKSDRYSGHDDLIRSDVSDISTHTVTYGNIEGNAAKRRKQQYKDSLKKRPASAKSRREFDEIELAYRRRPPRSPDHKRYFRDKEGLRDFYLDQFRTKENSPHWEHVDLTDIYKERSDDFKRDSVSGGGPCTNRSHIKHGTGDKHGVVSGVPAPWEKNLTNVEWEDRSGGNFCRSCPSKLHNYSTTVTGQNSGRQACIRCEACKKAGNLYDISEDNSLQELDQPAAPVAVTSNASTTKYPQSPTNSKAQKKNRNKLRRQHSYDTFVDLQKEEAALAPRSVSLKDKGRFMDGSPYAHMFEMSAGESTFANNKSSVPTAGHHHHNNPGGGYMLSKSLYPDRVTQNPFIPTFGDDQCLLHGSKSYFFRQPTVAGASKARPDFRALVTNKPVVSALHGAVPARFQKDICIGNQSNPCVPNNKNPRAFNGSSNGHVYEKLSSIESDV
- Protocol Summary: Whole-cell patch clamp of mammalian cells (Ionworks Barracuda), positive allosteric modulation, GluN2B
- Format: cell-based
- Condition Info: % potentiation of current elicited with EC20 L-glutamate and 30 μM glycine; read-out: Avg Emax 2B (%)
Decide using Emax alone. Strictly below 400%: fulfilled. Equal to or above 400%: not fulfilled.

## Input Field: below-cutoff. Rule: recorded Emax strictly less than 400%. Subject: C[C@H](CCC1(O)CCOC1)[C@H]1CC[C@H]2[C@@H]3CC[C@H]4C[C@](O)(C(F)(F)F)CC[C@]4(C)[C@H]3CC[C@]12C (some centres unmarked)
## Output fulfilled

## Input Is 400% strictly greater than the compound's reported Emax? compound: CCC(O)CC[C@@H](C)[C@H]1CC[C@H]2[C@@H]3CC=C4C[C@](O)(CC)CC[C@@H]4[C@H]3CC[C@]12C (some centres unmarked)
## Output fulfilled

## Input Answer whether the compound C[C@H](CC[C@H](O)C1CCC1)[C@H]1CC[C@H]2[C@@H]3CC[C@H]4C[C@](O)(C(F)(F)F)CC[C@]4(C)[C@H]3CC[C@]12C has Emax strictly less than 400%
## Output not fulfilled

## Input Does this compound meet the criterion Emax < 400%? C[C@H](CCC(O)Cc1ccccc1)[C@H]1CC[C@H]2[C@@H]3CC=C4C[C@@](C)(O)CC[C@]4(C)[C@H]3CC[C@]12C (some centres unmarked)
## Output fulfilled

====

I'd appreciate it if you could supply pEC50 values for the items below.
- Target Of Assay: GlunN1/GluN2A glutamate receptors (Homo sapiens (Human), UniProt Q05586+Q12879)
- Sequence (Q12879 23-1464, other chains not shown): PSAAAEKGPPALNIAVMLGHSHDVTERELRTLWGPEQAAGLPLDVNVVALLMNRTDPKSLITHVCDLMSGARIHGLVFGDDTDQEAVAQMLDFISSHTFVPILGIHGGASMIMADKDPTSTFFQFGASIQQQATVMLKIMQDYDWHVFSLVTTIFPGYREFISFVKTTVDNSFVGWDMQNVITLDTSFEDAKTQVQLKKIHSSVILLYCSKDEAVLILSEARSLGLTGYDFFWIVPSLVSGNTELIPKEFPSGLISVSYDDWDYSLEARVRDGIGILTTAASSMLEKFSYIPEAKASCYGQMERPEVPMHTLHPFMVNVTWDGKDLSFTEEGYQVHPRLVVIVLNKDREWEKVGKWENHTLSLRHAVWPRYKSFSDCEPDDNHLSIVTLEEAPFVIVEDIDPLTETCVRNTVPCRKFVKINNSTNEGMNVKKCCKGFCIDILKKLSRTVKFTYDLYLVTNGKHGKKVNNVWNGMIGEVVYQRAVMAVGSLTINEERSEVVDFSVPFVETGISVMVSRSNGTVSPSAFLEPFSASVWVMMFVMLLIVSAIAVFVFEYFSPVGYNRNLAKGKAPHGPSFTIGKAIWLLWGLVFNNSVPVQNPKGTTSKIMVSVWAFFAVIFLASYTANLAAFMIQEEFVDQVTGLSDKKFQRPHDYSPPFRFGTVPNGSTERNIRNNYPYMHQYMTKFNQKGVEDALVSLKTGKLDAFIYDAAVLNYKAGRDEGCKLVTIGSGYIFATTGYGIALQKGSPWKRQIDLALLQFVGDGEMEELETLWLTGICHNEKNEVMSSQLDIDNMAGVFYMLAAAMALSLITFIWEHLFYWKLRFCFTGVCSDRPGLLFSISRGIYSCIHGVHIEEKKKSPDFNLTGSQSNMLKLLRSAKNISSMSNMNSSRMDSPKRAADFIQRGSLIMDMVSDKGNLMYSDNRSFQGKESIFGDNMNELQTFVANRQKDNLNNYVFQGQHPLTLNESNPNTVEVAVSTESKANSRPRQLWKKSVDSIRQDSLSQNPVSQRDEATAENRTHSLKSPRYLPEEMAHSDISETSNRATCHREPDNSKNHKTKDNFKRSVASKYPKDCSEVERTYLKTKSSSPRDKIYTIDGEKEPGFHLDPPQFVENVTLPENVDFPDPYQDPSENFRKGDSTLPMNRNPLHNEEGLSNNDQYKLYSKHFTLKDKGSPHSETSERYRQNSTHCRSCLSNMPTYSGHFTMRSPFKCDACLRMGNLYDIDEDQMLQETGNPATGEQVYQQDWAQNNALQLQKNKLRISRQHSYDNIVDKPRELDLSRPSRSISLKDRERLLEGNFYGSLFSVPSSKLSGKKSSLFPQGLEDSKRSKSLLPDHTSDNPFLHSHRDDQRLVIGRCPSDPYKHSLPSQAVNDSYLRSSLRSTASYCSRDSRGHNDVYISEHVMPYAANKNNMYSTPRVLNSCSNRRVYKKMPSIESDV
- Protocol Summary: Whole-cell patch clamp of mammalian cells (Ionworks Barracuda), positive allosteric modulation, GluN1/GluN2A
- Assay type: cell-based
Please treat pEC50 as minus the base-10 logarithm of the molar concentration.

## Input Please give the measured pEC50 for this compound: C[C@H](CCC1(O)CCCCCC1)[C@H]1CC[C@H]2[C@@H]3CC[C@H]4C[C@](O)(C(F)(F)F)CC[C@]4(C)[C@H]3CC[C@]12C
## Output 7.06

## Input Form field: reported pEC50 of CC[C@]1(O)CC[C@@]2(C)C(=CC[C@H]3[C@@H]4CC[C@H]([C@H](C)CC[C@@H](O)c5cccc(C#N)c5)[C@@]4(C)CC[C@@H]32)C1
## Output 6.43

## Input Sample CC[C@]1(O)CC[C@@]2(C)C(=CC[C@H]3[C@@H]4CC[C@H]([C@H](C)CC[C@@H](O)c5ccccn5)[C@@]4(C)CC[C@@H]32)C1 — what was its pEC50?
## Output 6.59

## Input Dear colleague, I am looking for the recorded pEC50 of the following compound: CC[C@]1(O)CC[C@@]2(C)C(=CC[C@H]3[C@@H]4CC[C@H]([C@H](C)CCC(O)c5ccccn5)[C@@]4(C)CC[C@@H]32)C1 (some centres unmarked)
## Output 6.14

====

- Target Of Assay: GluN2B glutamate receptors (Homo sapiens (Human), UniProt Q05586+Q13224)
- Protocol Summary: Whole-cell patch clamp of mammalian cells (Ionworks Barracuda), positive allosteric modulation, GluN2B
- Format: cell-based
- Condition Info: % potentiation of current elicited with EC20 L-glutamate and 30 μM glycine; read-out: Avg Emax 2B (%)
Exam item: assign 1 to entries whose Emax is below 200% and 0 to entries at or above 200%. Note that a value of exactly 200% receives 0.

## Input Please determine if CC[C@]1(O)CC[C@H]2C(=CC[C@@H]3[C@@H]2CC[C@]2(C)[C@@H]([C@H](C)CCC[C@H](O)C(F)(F)F)CC[C@@H]32)C1 [Compound 9567] is below 200% in terms of Emax.
## Output 1

## Input Check if Emax falls below 200% for C[C@H](CC[C@@H](C)O)[C@H]1CC[C@H]2[C@@H]3CC=C4C[C@](O)(C(F)(F)F)CC[C@]4(C)[C@H]3CC[C@]12C [Compound 3266] .
## Output 1

## Input # strict comparison: is reported Emax < 200%? input = CC[C@]1(O)CC[C@@]2(C)C(=CC[C@H]3[C@@H]4CC[C@H]([C@H](C)CC[C@H](O)Cc5ccccc5)[C@@]4(C)CC[C@@H]32)C1 [Compound 6051]
## Output 0

## Input Determine whether this compound shows Emax lower than 200% (ties excluded): C[C@H](CC[C@]1(O)CCOC1)[C@H]1CC[C@H]2[C@@H]3CC[C@H]4C[C@](O)(C(F)(F)F)CC[C@]4(C)[C@H]3CC[C@]12C [Compound 2707]
## Output 0

## Input Regarding C[C@H](CCC1(O)CCOCC1)[C@H]1CC[C@H]2[C@@H]3CC[C@H]4C[C@](O)(C(F)(F)F)CC[C@]4(C)[C@H]3CC[C@]12C [Compound 11] , kindly confirm whether its Emax is beneath 200%.
## Output 1
